Assay Summary: yeast display, Sf9 membrane polyspecificity reagent, FACS + sequencing; frameworks hold sequencing errors
Measured Attribute: polyreactivity (PSR sort gate)

- Primary Sequence: "QVQLGESGGGLVQAGGSLRLSCAASGRIFGGNAMGRYRQAPGKERELVATISSDGSTNYADSVKGRFTISRDIAKNTVYLQMNSLKPEDTAVYYCAKGFYTLTPHGMDYWGQGTQVTVSS"
  Measured Attribute: "polyreactivity (PSR sort gate)"
  Result: "low polyreactivity"
- Primary Sequence: "QVQLVESGGGLVQAGGSLRLSCAASGRIFYGYVMGLYRQAPGKERELVAAISLSGGRTYYADSVKGRFTISRDNAKNTVYLQMNSLKPEDTAVYYCAAEGIKGISYGHDYWGQGTQVTVSS"
  Measured Attribute: "polyreactivity (PSR sort gate)"
  Result: "low polyreactivity"

====

Assay Summary: yeast display, Sf9 membrane polyspecificity reagent, FACS + sequencing; frameworks hold sequencing errors

- Primary Sequence: "QVQLVESGGGLVQAGGSLRLSCAASGRIFIRNDMGWYRQAPGKERELVAVITRSGGRTYYADSVKGRFTISRDNAKNTVYLQMHSLKPEDTAVYSCAKRQAFKQAPYEYWGQGTQVTVSS"
  polyreactivity (PSR sort gate): "low polyreactivity"
- Primary Sequence: "QVQLVESGGGLVQAGGSLRLSCAASGFTFDGNAMGWYRQAPGKERELVATITSGGNTKYADSVKGRFTISRDNAKNTVYFQMNSLKPEDTAVYYCAAAQYNYRRFNYWGQGTQVTVSS"
  polyreactivity (PSR sort gate): "low polyreactivity"
- Primary Sequence: "QVQLVESGGGLVQAGGSLRLSCAASGSTFQQYAMGWYRQAPGKERELVAAITGSTGSTYYADSVKGRFTISRDNAKNTVYLQMNSLKPEDTAVYYCNAVRYSRYYRKYNYWGQGTQVTVSS"
  polyreactivity (PSR sort gate): "high polyreactivity"
- Primary Sequence: "QVQLVESGGGLVQAGGSLRLSCAASGLIFGSYAMGWSRQAPGKERELVAAISRSGGSTYYADSVKGRFTISRDNAKNTVYLQMNSLKPEDTAVYYCAARGYPLGIGRIKRNYWGQGTQVTVAS"
  polyreactivity (PSR sort gate): "high polyreactivity"
- Primary Sequence: "QVQLVESGGGLVQAGGSLRLSCAASGFSFPPYAMGWYRQAPGKERELVAAITTSGGSTYYADSVKGRFTISRDNAKNTVYLQMNSMKPEDTAVYYCAADWRYLGYTAMDYWGQGTQVTVSS"
  polyreactivity (PSR sort gate): "low polyreactivity"

====

Assay Summary: yeast display, Sf9 membrane polyspecificity reagent, FACS + sequencing; frameworks hold sequencing errors

- Primary Sequence: "QVQLVESGGCLVQAGGSLRLSCAASGRIFSGYVMGWYRQAPGKERELVAGITYRDGSTYYADSVKGRFTISRDKEKNTVYLQMNSLKPEDTAVYYCNADDYNDIPYDYWGQGTHVTVSS"
  polyreactivity (PSR sort gate): "low polyreactivity"
- Primary Sequence: "QVQLVESGAGLFQAGGRLRLSCAASGRTFQVYAMAWYRHAPGTERELVAAIDLGGGSTYYADSVKGRFTISRDNAKNTVYLQMNSLKQEDTAVYYCAADVGLRFDYWGQGTQVTVSS"
  polyreactivity (PSR sort gate): "high polyreactivity"
- Primary Sequence: "QVQLVESGGGLVQAGGSLRLSCAASGSIFGENARGWYRQAPGKERELVAAITSGGSTYYADSVKGRFTISRDNAKNTVYLQMNSLKPVDTAVYYCAASGRVGPGYWYDSWGQGTQVTVSS"
  polyreactivity (PSR sort gate): "low polyreactivity"
- Primary Sequence: "QVQLVESGGGLVQAGGSLRLSCAASGLIFYVYAMGWYRQAPGKERELVAAISFRGTSTYADSVKGRFTISRDNAKNTVYFQMNSLKPEDTAVYYCAVTGFDVLWPSLGGELDYWGQGTQVTVSS"
  polyreactivity (PSR sort gate): "low polyreactivity"
- Primary Sequence: "QVQLVESGGGLVQAGGSLRLSCAASGRTFHSYAMGWYRQAPGKEWELVAGISWGGTRTTYADSVKGRFTISRDNSKNTVYLQMNSLKPEDTAVYYCNAVYYALGRSPPDYGYWGQGTQVTVSS"
  polyreactivity (PSR sort gate): "low polyreactivity"
- Primary Sequence: "QVQLVESGGGLVQAGGSLRLSCAASGFTFERYTMGWYRQAPGKERELVATISRRSGRTSYADSVKGRFTISRDNAKNTVYLQMNSLKPEDTAVYYCAVDDAYPDRYDYWGQGTQVTVSS"
  polyreactivity (PSR sort gate): "high polyreactivity"
- Primary Sequence: "QVQLVESGGGLVQAGGSLRLSCAASGITFNAYAMGLYRQAPGKERELVAAISRSGGSTYYADSVKGRFTISRDNANNTVYLQMNSLKPEDTAVYYCAVDYRTRGDYWGQGTQVTVSS"
  polyreactivity (PSR sort gate): "high polyreactivity"
- Primary Sequence: "QVQLVESGGGLVQAGGSLRLSCAASGRTFGVYAMGCYRQAPGKERELVAGIRWRGGSTYYADSVKGRFTNSRDNAKNTVYLQMNSLKPEDTAVYYCAADVYLVKYDYWGQGTQVTVSS"
  polyreactivity (PSR sort gate): "low polyreactivity"
- Primary Sequence: "QVQLVESGVGLVQAGGSLRLSSAASGSIFLSYDMGWYRQAPGKERELVAAITQSGGSTYYADSVKGRFTISRDNAKNTVYLQMNSLKPEDTAVYYCAADYGYFPQETYPTYGYYYWGQGTQVTVSS"
  polyreactivity (PSR sort gate): "low polyreactivity"
- Primary Sequence: "QVPLVESGGGLVQSGGSLRLSCAASGSTCSRNAMGWYREAPGKERELVAAINDSGGSTYYADSVKGRFTISRDMAKNTVYLQMNSLKPEDTAVYYCNAVSPYYWDFRYDYWGQGTQVTVSS"
  polyreactivity (PSR sort gate): "high polyreactivity"
- Primary Sequence: "QVQLVESGGGLVQAGGSLRLSCAASGSIFSSNAMGWYRPAPGKERELVAAITSGGSTTYADSVKGRFTISRDNAKNTVYLQMNSLKPEDTAVYYCAADPVYRYYHGWTYLDYDYWGQGTQVTVSS"
  polyreactivity (PSR sort gate): "low polyreactivity"
- Primary Sequence: "QVQLVESGGGLVQAGGSLRISCAASGIIFSPYVMGWYRQAPGKERELVAAITTGDSTNYADSVKGRFTISRDNAKNTVYLQMKSLKPEDSAVYYCNADLYVGYLYYLFDYWGQGTQVSVSS"
  polyreactivity (PSR sort gate): "low polyreactivity"
- Primary Sequence: "QVHLVESGGGLVQAGGSLRLSCAASGSIFGYNTMGWYRQAPGKERELVAAISYSSGSTHYADSVKGRFTISRVNAKNTVYLQMNSLKPEDTAVYYSTSVRRWSFGYWGQGTQVTVSS"
  polyreactivity (PSR sort gate): "low polyreactivity"
- Primary Sequence: "QVQLVESGGGLVQAGGSLRLSCAASGIIFYGYAMGWYRQAPGKERELVAAISRSGGSTYYADSVKGRFTISRDNAKNTVYLQMNSLKPEDTAVYYCAASGVTYDYWGQGTQVTVSS"
  polyreactivity (PSR sort gate): "high polyreactivity"
- Primary Sequence: "QVQHVESGGGLVQAGGILRLSCAASGFTFPAYTMGWYRQAPGKERELVAAITSSGGNTYYADSVKGRFTISRDNAKNTLCLQMNSLKPEDTAVYYCATVSVRWPSNDHVRYDYWGQGTQVTVSS"
  polyreactivity (PSR sort gate): "low polyreactivity"
- Primary Sequence: "QVQLVESGGGLVQAGGSLRLSCAASGFTFTRYAMGWYRQAPGKERELVATITKRGGSTYYADSVKGRFTISRDNAKNTVYLQMNSLKPEDTAVYYCAADGASRALYDFWGQGTQVTVSS"
  polyreactivity (PSR sort gate): "high polyreactivity"
- Primary Sequence: "QVQLVESGGGLVQAGGSLRLSCAASGRTFFGYAMGWYRQAPGKERELVAAISSRGDSTYYADSVKGRFTISRDNAKNTVYLQMNSLKPEDTAVYYCNAPVYTAAGYRYGTVRYGYWGQGTQVTVSS"
  polyreactivity (PSR sort gate): "low polyreactivity"
- Primary Sequence: "QVQLVESGGGLVQAGGSLRLSCAASGRILVLNAMGWYRQAPGKERELVADITSGGSTYYADSVKGRFTISRDNAKNTVYLQMNSLKPEDTAVYYCAADWNTYPDYQQSYFVSYEYNYWGQGTQVTVSS"
  polyreactivity (PSR sort gate): "low polyreactivity"
- Primary Sequence: "QVQLVESGGGLVQAGGSLRLSCAASGRTFKYNAMGWYIQAPGKERELVAAISSRGGSTYYADSVKGRFTISRDNAKNTVYLQMNSLKPEDTAVYYCAKATSSSEYGYDYWGQGTQVTVSS"
  polyreactivity (PSR sort gate): "high polyreactivity"
- Primary Sequence: "QGQLVESGGGLVQAGGSLRLSCAASGRTLYYYAMGWYRQAPGKERELVASIDWDSGITDYADSVTGRFTISRANAKNTVYLQMNILTPEDTAVYYCAAVRVTKKYSYEYWGQGTQVTVSA"
  polyreactivity (PSR sort gate): "low polyreactivity"
- Primary Sequence: "QVQLVESGGGLVQAGGSLRLSCAASGFTFTPNAMGWYRQAPGKERELVAVITWNGGTTYYADSVKGRFTISRDNAKNTVYLQMNSLKPEDTAVYYCNADGLILYDYWGQGTQVTVSS"
  polyreactivity (PSR sort gate): "low polyreactivity"

Each recorded value in this set is attributed to the nanobody polyreactivity screen of Harvey et al. (2022).
